system: FL-SMARCA2 (full-length human SMARCA2 isoform 1) (Homo sapiens, UniProt P51531)
Construct: FLAG tag (YKDDDDK) (C); made in house; host or cells: Sf21 insect cells (baculovirus, pFastBacI)
Sequence (P51531 with tags, fused parts or gaps): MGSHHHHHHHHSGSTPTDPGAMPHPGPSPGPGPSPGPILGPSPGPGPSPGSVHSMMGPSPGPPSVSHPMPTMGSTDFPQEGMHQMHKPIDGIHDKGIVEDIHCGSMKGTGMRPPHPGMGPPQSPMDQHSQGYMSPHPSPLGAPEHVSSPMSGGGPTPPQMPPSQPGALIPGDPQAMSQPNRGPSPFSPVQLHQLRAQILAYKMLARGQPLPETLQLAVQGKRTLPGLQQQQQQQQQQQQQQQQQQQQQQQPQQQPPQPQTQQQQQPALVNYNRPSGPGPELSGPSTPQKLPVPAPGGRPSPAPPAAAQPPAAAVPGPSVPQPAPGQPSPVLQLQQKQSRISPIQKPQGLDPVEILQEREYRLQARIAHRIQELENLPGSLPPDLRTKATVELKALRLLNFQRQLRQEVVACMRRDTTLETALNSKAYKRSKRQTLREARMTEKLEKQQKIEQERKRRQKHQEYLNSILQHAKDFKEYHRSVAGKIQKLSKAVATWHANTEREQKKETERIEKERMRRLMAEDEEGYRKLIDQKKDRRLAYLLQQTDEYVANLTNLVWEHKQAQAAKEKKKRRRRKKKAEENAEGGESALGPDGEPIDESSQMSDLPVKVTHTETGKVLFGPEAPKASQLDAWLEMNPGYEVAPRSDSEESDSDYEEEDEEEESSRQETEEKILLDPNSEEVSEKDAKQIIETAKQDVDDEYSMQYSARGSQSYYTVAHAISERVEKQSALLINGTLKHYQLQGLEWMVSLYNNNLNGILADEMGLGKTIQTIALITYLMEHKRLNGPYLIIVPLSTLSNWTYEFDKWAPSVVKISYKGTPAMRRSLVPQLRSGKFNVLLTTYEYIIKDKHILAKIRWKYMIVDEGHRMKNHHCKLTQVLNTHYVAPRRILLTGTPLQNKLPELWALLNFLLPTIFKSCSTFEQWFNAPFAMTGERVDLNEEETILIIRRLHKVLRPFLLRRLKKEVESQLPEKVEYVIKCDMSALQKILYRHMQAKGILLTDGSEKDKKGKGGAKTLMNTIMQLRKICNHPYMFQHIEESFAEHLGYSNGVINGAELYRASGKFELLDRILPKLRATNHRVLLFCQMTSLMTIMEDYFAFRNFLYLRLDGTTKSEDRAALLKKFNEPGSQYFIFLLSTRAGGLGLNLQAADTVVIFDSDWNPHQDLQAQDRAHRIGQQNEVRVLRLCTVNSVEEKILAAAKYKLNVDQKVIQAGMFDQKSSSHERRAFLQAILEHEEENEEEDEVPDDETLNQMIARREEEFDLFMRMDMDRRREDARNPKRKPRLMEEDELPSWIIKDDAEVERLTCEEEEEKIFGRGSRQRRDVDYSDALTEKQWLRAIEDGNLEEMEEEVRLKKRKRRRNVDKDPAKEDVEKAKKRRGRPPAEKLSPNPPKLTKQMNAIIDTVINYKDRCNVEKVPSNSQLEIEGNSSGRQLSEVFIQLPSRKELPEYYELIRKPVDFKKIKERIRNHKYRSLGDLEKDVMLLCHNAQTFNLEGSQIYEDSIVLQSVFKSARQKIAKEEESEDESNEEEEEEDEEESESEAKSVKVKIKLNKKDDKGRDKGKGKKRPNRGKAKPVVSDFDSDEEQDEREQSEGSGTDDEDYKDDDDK
assay-protocol: SMARCA2 ATPase activity assay (ADP-Glo, chicken mononucleosome substrate)
Format: biochemical
measurement-setup: Table 3c.1; ATPase assay, enzyme 5 nM, ATP 250 uM, chicken mononucleosome 10 nM, 30 min preincubation
property-label: IC50 (nM)
Kindly answer with a numeric value in nM, unit omitted.

compound: Cc1cc(C#Cc2cc(C(=O)Nc3cc(F)c(=O)n(CC(F)F)c3)sc2Cl)sn1 [Compound 64c]
property-label: IC50
quantitative-result: 8.79

// next entry
input: Requested field: IC50. Item: O=C(Nc1cc(F)c(=O)n(CC(F)F)c1)c1cc(C#Cc2cnccn2)c(Cl)s1 [Compound 40c]
output: 99.5

====

system: FL-SMARCA4 (Homo sapiens, UniProt P51532)
Sequence (P51532 whole entry): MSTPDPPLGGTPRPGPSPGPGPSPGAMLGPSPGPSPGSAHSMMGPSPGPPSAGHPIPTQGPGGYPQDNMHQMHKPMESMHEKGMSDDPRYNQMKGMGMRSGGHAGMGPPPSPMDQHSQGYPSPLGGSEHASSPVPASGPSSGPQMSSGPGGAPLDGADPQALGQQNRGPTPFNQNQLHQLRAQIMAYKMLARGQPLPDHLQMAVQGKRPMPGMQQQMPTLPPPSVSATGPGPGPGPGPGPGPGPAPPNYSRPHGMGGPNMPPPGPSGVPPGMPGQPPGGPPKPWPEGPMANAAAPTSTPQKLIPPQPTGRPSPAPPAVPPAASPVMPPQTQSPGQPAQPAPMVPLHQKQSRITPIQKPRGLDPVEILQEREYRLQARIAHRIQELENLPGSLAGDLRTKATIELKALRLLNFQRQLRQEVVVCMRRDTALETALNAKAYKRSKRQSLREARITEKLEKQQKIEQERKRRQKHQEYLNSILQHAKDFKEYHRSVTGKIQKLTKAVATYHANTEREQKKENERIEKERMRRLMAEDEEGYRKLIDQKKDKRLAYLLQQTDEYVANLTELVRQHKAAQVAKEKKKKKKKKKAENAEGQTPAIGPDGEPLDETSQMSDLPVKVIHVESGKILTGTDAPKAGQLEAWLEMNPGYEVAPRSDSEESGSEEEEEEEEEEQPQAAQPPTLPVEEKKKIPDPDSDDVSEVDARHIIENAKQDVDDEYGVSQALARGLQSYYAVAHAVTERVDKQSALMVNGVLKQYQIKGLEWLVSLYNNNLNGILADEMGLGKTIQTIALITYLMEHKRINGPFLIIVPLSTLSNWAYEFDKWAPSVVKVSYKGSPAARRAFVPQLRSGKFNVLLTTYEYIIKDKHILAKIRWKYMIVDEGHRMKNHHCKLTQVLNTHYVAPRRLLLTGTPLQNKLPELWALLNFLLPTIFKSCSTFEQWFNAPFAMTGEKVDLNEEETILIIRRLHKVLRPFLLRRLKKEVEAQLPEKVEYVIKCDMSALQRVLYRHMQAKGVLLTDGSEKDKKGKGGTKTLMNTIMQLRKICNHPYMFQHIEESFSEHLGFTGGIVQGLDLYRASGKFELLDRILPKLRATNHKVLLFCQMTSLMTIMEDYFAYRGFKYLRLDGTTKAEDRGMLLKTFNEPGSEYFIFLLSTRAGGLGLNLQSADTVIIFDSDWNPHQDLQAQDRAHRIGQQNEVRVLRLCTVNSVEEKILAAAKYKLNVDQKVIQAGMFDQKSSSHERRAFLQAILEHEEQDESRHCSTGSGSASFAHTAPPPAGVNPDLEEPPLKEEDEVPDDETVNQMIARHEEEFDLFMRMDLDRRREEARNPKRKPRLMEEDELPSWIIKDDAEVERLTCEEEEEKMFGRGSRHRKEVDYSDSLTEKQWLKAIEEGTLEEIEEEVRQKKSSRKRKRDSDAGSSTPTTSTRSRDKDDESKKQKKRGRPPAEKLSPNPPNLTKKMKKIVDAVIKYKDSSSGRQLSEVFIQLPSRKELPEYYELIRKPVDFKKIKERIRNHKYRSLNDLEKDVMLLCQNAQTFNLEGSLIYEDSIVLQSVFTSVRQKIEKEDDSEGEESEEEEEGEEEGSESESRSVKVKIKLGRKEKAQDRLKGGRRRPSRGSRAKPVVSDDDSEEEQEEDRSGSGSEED
assay-protocol: SMARCA4 ATPase activity assay (ADP-Glo, chicken mononucleosome substrate)
measurement-setup: FL-SMARCA4 IC50
pIC50: −log10 of the molar value.
Label not satisfied if pIC50 falls below 6; label satisfied in every other case.

Consider the following illustrative entries.
compound: N#Cc1sc(C(=O)Nc2cc(F)c(=O)n(CC(F)F)c2)cc1C#C[C@H]1C[C@H](O)C1 [Compound 104d]
system: FL-SMARCA4 (Homo sapiens, UniProt P51532)
group-label: satisfied

compound: CC(N)C#Cc1cc(C(=O)Nc2cc(F)c(=O)n(CC(F)F)c2)sc1Cl (centres unmarked) [Compound 138d]
system: FL-SMARCA4 (Homo sapiens, UniProt P51532)
group-label: not satisfied

input: pIC50 >= 6 for Cc1cc(C)n(-c2ccc(C(=O)Nc3cn(C)c(=O)cc3C)cn2)n1 [Compound 2d] ?
output: not satisfied

input: Also need CN1CCCC(C#Cc2sc(C(=O)Nc3cc(F)c(=O)n(CC(F)F)c3)cc2Cl)C1 (centres unmarked) [Compound 132d] , thanks.
output: not satisfied

====

system: FL-SMARCA2 (full-length human SMARCA2 isoform 1) (Homo sapiens)
Construct: FLAG tag (YKDDDDK) (C); made in house; host or cells: Sf21 insect cells (baculovirus, pFastBacI)
assay-protocol: SMARCA2 ATPase activity assay (ADP-Glo, chicken mononucleosome substrate)
Assay type: biochemical
measurement-setup: Table 3c.1; ATPase assay, enzyme 5 nM, ATP 250 uM, chicken mononucleosome 10 nM, 30 min preincubation
Mark T only for IC50 values smaller than 200 nM; exact matches and larger values are F.

Consider the following illustrative entries.
molecule: CNC(=O)c1cc(C#Cc2cc(C(=O)Nc3cc(F)c(=O)n(CC(F)F)c3)sc2Cl)nn1C [Compound 154c]
system: FL-SMARCA2 (full-length human SMARCA2 isoform 1) (Homo sapiens)
group-label: T
//
molecule: O=C(Nc1cc(F)c(=O)n(CC(F)F)c1)c1cc(C#Cc2ccncc2)cs1 [Compound 23c]
system: FL-SMARCA2 (full-length human SMARCA2 isoform 1) (Homo sapiens)
group-label: T
//
molecule: O=C(Nc1cc(-c2cnco2)c(=O)n(CC(F)F)c1)c1cc(Cl)c(C(F)(F)F)s1 [Compound 101c]
system: FL-SMARCA2 (full-length human SMARCA2 isoform 1) (Homo sapiens)
group-label: F
//
molecule: O=C(Nc1cc(F)c(=O)n(CC(F)F)c1)c1cc(C2CC(c3ccncc3)C2)c(Cl)s1 (centres unmarked) [Compound 152c]
system: FL-SMARCA2 (full-length human SMARCA2 isoform 1) (Homo sapiens)
group-label: F
//
molecule: CCn1cc(C#Cc2cc(C(=O)Nc3cc(F)c(=O)n(CC(F)F)c3)sc2Cl)cn1 [Compound 54c]
system: FL-SMARCA2 (full-length human SMARCA2 isoform 1) (Homo sapiens)
group-label: T
//
molecule: O=C(Nc1cc(F)c(=O)n(CC(F)F)c1)c1cc(/C=C/c2cccnc2)c(Cl)s1 [Compound 95c]
system: FL-SMARCA2 (full-length human SMARCA2 isoform 1) (Homo sapiens)
group-label: F

input: Just wondering, is IC50 of N#Cc1sc(C(=O)Nc2cc(F)c(=O)n(CC(F)F)c2)cc1C#Cc1ccncc1 [Compound 134c] below 200 nM?
output: T

input: Also need O=C(Nc1cc(F)c(=O)n(CC(F)F)c1)c1cc(N2CCN(c3ccncc3)CC2)c(Cl)s1 [Compound 119c] , thanks.
output: F

====

system: FL-SMARCA2 (full-length human SMARCA2 isoform 1) (Homo sapiens, UniProt P51531)
Construct: FLAG tag (YKDDDDK) (C); made in house; host or cells: Sf21 insect cells (baculovirus, pFastBacI)
assay-protocol: SMARCA2 ATPase activity assay (ADP-Glo, chicken mononucleosome substrate)
Format: biochemical
measurement-setup: Table 3.1; ATPase assay, enzyme 5 nM, ATP 250 uM, chicken mononucleosome 10 nM, 30 min preincubation
property-label: pIC50
Kindly note that pIC50 refers to -log10 of the concentration in mol/L and answer with the value alone.

Example cases with answers are listed next.
compound: O=C(Nc1cc(F)c(=O)n(CCF)c1)c1cc(Cl)c(CC(F)(F)F)s1 [Compound 319]
pIC50: 5.88

compound: N#Cc1sc(C(=O)Nc2cc(Cl)c(=O)n(CCF)c2)cc1Cl [Compound 125]
pIC50: 7.51

compound: O=C(Nc1cc(Cl)c(=O)n(CC(F)(F)F)c1)c1cnc(Cl)s1 [Compound 104]
pIC50: 6.72

// next entry
input: Requested field: pIC50. Item: O=C(Nc1cc(F)c(=O)n(CC(F)F)c1)c1cc(F)c(Cl)s1 [Compound 323]
output: 7.72

====

system: FL-SMARCA2 (full-length human SMARCA2 isoform 1) (Homo sapiens, UniProt P51531)
Construct: FLAG tag (YKDDDDK) (C); made in house; host or cells: Sf21 insect cells (baculovirus, pFastBacI)
assay-protocol: SMARCA2 ATPase activity assay (ADP-Glo, chicken mononucleosome substrate)
Type: biochemical
measurement-setup: Table 3d.1; ATPase assay, enzyme 5 nM, ATP 250 uM, chicken mononucleosome 10 nM, 30 min preincubation; read-out: FL-SMARCA2 IC>50
Category scheme (IC50): group 1 (below 40 nM), group 2 (40 nM to below 900 nM), group 3 (900 nM or more)

Consider the following illustrative entries.
compound: CSc1cc(NC(=O)c2cc(F)c(Cl)s2)cn(CC(F)F)c1=O [Compound 50d]
system: FL-SMARCA2 (full-length human SMARCA2 isoform 1) (Homo sapiens, UniProt P51531)
group-label: group 3

compound: Cc1cc(=O)[nH]cc1NC(=O)c1ccc(C(F)(F)F)nc1C [Compound 32d]
system: FL-SMARCA2 (full-length human SMARCA2 isoform 1) (Homo sapiens, UniProt P51531)
group-label: group 3

compound: O=C(Nc1cc(F)c(=O)n(CC(F)F)c1)c1cc(C#Cc2ccc3cncn3c2)c(Cl)s1 [Compound 96d]
system: FL-SMARCA2 (full-length human SMARCA2 isoform 1) (Homo sapiens, UniProt P51531)
group-label: group 1

compound: CN1CC(C#Cc2cc(C(=O)Nc3cc(F)c(=O)n(CC(F)F)c3)sc2Cl)CC1=O (stereo not drawn) [Compound 113d]
system: FL-SMARCA2 (full-length human SMARCA2 isoform 1) (Homo sapiens, UniProt P51531)
group-label: group 3

compound: N#Cc1sc(C(=O)Nc2cc(F)c(=O)n(CC(F)F)c2)cc1C#C[C@H]1C[C@@H](O)C1 [Compound 105d]
system: FL-SMARCA2 (full-length human SMARCA2 isoform 1) (Homo sapiens, UniProt P51531)
group-label: group 1

input: Into which bin does this compound go? CCn1c(C)c(NC(=O)c2cc(Cl)c(Cl)s2)ccc1=O [Compound 25d]
output: group 3

input: Also need O=C(Nc1cc(F)c(=O)n(CC(F)F)c1)c1cc(C#Cc2cnc3n2CCOC3)c(Cl)s1 [Compound 95d] , thanks.
output: group 2

input: Also need O=C(Nc1cc(Cl)c(=O)n(CC(F)F)c1)c1cc(Cl)c(C(F)(F)F)s1 [Compound 79d] , thanks.
output: group 2

input: Also need N#Cc1cc(C(=O)Nc2cc(F)c(=O)n(CC(F)F)c2)sc1C(F)F [Compound 69d] , thanks.
output: group 1

input: Also need Cn1cc(C#Cc2cc(C(=O)Nc3cc([N+](=O)[O-])c(=O)n(CC(F)F)c3)sc2C(F)(F)F)cn1 [Compound 128d] , thanks.
output: group 3

====

The entries below are paired with their reported IC50.
system: FL-SMARCA2 (full-length human SMARCA2 isoform 1) (Homo sapiens, UniProt P51531)
Construct: FLAG tag (YKDDDDK) (C); made in house; host or cells: Sf21 insect cells (baculovirus, pFastBacI)
assay-protocol: SMARCA2 ATPase activity assay (ADP-Glo, chicken mononucleosome substrate)
Type: biochemical
measurement-setup: Table 3.1; ATPase assay, enzyme 5 nM, ATP 250 uM, chicken mononucleosome 10 nM, 30 min preincubation

Example cases with answers are listed next.
smiles-entry: N#Cc1cc(C(=O)Nc2cc(F)c(=O)n(CCF)c2)sc1C#N
IC50: 9.09 nM
--
smiles-entry: Cn1c(C(=O)Nc2cc(F)c(=O)n(CCF)c2)cc(Cl)c1C#N
IC50: 166 nM
--
smiles-entry: COCCn1cc(NC(=O)c2cnn(-c3ccccc3C)c2C)ccc1=O
IC50: > 50000 nM
--
smiles-entry: CCn1cc(NC(=O)c2cc(Cl)c(C#N)n2C)cc(Cl)c1=O
IC50: 553 nM

input: Requested field: IC50. Item: C/C=C/c1cc(C(=O)Nc2ccc(=O)n(CC)c2)sc1Cl
output: 24000 nM
